These data points were gathered from paper PMC11079024.

- Assayed system: C. elegans (N2) complex I (NADH:ubiquinone oxidoreductase) (Caenorhabditis elegans, UniProt P24887+Q93873+Q94360)
- Sequence (Q94360 17-199): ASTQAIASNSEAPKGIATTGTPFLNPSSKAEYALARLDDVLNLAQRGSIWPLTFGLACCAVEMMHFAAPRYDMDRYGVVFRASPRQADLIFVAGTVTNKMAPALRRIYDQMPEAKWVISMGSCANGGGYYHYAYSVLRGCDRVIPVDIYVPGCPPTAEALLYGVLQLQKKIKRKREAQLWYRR
- Sequence (P24887 whole entry): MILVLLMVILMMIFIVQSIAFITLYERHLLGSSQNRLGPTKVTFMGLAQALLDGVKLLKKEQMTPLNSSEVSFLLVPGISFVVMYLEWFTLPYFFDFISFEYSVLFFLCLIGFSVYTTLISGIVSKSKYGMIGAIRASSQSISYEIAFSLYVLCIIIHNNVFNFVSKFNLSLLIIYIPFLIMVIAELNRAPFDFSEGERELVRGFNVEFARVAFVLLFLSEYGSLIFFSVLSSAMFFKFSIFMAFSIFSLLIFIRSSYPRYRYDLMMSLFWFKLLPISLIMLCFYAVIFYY
- Sequence (Q93873 31-482): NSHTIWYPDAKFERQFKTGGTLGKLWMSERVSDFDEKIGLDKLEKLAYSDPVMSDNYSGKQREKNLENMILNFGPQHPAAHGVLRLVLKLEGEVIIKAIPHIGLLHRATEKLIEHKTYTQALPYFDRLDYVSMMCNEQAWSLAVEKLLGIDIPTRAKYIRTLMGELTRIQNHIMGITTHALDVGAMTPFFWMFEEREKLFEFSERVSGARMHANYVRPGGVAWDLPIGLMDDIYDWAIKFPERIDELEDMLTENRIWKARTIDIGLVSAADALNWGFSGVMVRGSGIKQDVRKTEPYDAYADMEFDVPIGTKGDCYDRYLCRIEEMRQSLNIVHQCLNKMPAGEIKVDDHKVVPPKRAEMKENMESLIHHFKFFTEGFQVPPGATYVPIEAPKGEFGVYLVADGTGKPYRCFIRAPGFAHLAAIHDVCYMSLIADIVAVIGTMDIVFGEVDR
- Method notes: biochemical
- Assay type: biochemical
- Run conditions: 100 µM compound, relative to solvent control, mean (SEM); read-out: % Activity Complex I
Property: activity at 100 µM; scope: individual molecules
Answer format: numeric, % implied, no suffix.

Use the examples below as a reference point.
| Molecule | Recorded metric | Output unit | Reported value |
| --- | --- | --- | --- |
| COc1cc2c(cc1OC)C(c1ccc(-c3ccc(Cl)c(Cl)c3)o1)=NCC2 | activity at 100 µM | % | 36.8 |
| COc1cc2c(cc1OC)C(C(C)c1ccc(CC(C)C)cc1)=NCC2 (stereo not drawn) | activity at 100 µM | % | 4.22 |
| COc1cc2c(cc1OC)C(/C=C/c1ccc(N(C)C)cc1)=NCC2 | activity at 100 µM | % | 12.7 |
| C=C(C)[C@H]1Cc2c(ccc3c2O[C@@H]2COc4cc(OC)c(OC)cc4[C@@H]2C3=O)O1 [Rotenone, reference compound] | activity at 100 µM | % | 0 |
| CC(C)Cc1ccc(C(C)c2nc3ccccc3n2C)cc1 (stereo not drawn) | activity at 100 µM | % | 5.34 |

# next molecule below
Q: Requested read-out: activity at 100 µM. Entry: CCCCCC[C@H]1C(=O)O[C@H](C)[C@H](NC(=O)c2cccc(NC=O)c2O)C(=O)O[C@@H](C)[C@@H]1OC(=O)CC(C)C [Antimycin A, reference compound]
Result: 117

* * *

- Test system: adult H. polygyrus
- Method notes: microbe, parasite or virus in culture
- Assay type: cell-based, Heligmosomoides polygyrus
- Run conditions: Heligmosomoides polygyrus, 24 h, adult H. polygyrus, anaerobic, replicate 2; 24 hours after treatment; affected = score equal to or lower than 1.5; read-out: Percent Worms Affected
Recorded metric: killing at 10 µM (%)
Answer format: numeric, % implied, no suffix.

| Compound | Assayed system | Recorded metric | Reported value |
| --- | --- | --- | --- |
| Clc1ccc(Cn2cnc3ccccc32)c(Cl)c1 | adult H. polygyrus | killing at 10 µM | 67 |
| Cc1nc2ccccc2n1Cc1ccccc1Cl | adult H. polygyrus | killing at 10 µM | 33 |
| Cc1ccccc1OCCCCn1cnc2ccccc21 | adult H. polygyrus | killing at 10 µM | 0 |
| Clc1ccc(SCCCCn2cnc3ccccc32)cc1 | adult H. polygyrus | killing at 10 µM | 83 |
| CC(C)Cc1ccc(C(C)c2nc3ccccc3n2C(C)C)cc1 (centres unmarked) | adult H. polygyrus | killing at 10 µM | 83 |

Q: Requested read-out: killing at 10 µM. Entry: CCn1c(C(C)c2ccc(CC(C)C)cc2)nc2ccccc21 (centres unmarked)
Result: 67

Q: // repeat for "Cc1nc2ccccc2n1Cc1ccc(Br)cc1" and report
Result: 67

Q: // repeat for "Cc1nc2ccccc2n1Cc1ccc(Cl)cc1" and report
Result: 33

* * *

- Assayed system: C. elegans (N2) complex I (NADH:ubiquinone oxidoreductase) (Caenorhabditis elegans, UniProt P24887+Q93873+Q94360)
- Method notes: biochemical
- Format: biochemical
- Run conditions: Dose 3 µM; read-out: C. elegans mitochondrial complex I activity
Recorded metric: activity at 3 µM (%)
Answer format: numeric, % implied, no suffix.

Q: Requested read-out: activity at 3 µM. Entry: Cc1ccc(C(C)C)c(OCC(O)Cn2cnc3ccccc32)c1 (stereo not shown)
Result: 11.5

Q: // repeat for "Cc1ccc(CSCc2nc3ccccc3[nH]2)cc1" and report
Result: 73.4

Q: // repeat for "Cc1ccc(OCCn2cnc3ccccc32)c(C)c1" and report
Result: 44.2

Q: // repeat for "CCCOc1ccc(Cn2cnc3ccccc32)cc1" and report
Result: 15.1

* * *

- Assayed system: M. musculus (heart) complex I (Mus musculus, UniProt P03888+Q91WD5+Q9DC70)
- Sequence (Q91WD5 34-463): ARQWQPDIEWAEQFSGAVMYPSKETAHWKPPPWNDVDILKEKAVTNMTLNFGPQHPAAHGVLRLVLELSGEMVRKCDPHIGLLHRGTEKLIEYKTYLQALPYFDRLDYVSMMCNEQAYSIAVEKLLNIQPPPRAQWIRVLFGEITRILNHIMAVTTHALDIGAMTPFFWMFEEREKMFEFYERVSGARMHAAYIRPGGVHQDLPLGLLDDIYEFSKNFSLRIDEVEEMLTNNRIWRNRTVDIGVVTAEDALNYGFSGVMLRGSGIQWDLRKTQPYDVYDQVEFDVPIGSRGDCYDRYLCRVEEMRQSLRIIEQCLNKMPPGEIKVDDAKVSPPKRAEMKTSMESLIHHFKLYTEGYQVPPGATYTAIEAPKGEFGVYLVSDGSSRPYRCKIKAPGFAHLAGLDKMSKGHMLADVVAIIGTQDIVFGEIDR
- Sequence (Q9DC70 36-224): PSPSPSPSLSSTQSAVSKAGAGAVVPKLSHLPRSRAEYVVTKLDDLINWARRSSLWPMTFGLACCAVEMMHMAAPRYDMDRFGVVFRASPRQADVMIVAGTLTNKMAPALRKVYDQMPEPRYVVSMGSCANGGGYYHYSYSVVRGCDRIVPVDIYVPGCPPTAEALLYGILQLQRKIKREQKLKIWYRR
- Sequence (P03888 whole entry): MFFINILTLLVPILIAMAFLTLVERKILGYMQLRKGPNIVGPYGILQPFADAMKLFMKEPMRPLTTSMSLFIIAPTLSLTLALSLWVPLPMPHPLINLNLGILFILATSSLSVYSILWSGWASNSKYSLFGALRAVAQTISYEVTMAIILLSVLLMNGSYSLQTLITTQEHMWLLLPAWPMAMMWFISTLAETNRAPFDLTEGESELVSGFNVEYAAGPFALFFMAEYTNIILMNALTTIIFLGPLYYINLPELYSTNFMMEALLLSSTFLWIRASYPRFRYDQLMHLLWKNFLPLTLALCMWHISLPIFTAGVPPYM
- Method notes: biochemical
- Type: biochemical
- Run conditions: M. musculus; dose 0.0001 µM; Mean of replicates; read-out: Complex I activity, dose-response data
Property: activity at 0.0001 µM; scope: individual compounds
Answer format: numeric, % implied, no suffix.

Use the examples below as a reference point.
| Compound | Assayed system | Reported value |
| --- | --- | --- |
| CC(C)Cc1ccc(C(C)c2nc3ccccc3n2C)cc1 (stereo not shown) [NPD8790] | M. musculus (heart) complex I (Mus musculus, UniProt P03888+Q91WD5+Q9DC70) | 100 |
| COc1cc2c(cc1OC)C(/C=C/c1ccc(N(C)C)cc1)=NCC2 [NPD6303] | M. musculus (heart) complex I (Mus musculus, UniProt P03888+Q91WD5+Q9DC70) | 101 |
| COc1cc2c(cc1OC)C(C(C)c1ccc(CC(C)C)cc1)=NCC2 (stereo not shown) [NPD10504] | M. musculus (heart) complex I (Mus musculus, UniProt P03888+Q91WD5+Q9DC70) | 100 |

Q: Requested read-out: activity at 0.0001 µM. Entry: COc1cc2c(cc1OC)C(c1ccc(-c3ccc(Cl)c(Cl)c3)o1)=NCC2 [NPD3577]
Result: 99.3

* * *

- Assayed system: C. elegans (N2) complex I (NADH:ubiquinone oxidoreductase) (Caenorhabditis elegans, UniProt P24887+Q93873+Q94360)
- Method notes: biochemical
- Format: biochemical
- Run conditions: Dose 0.025 µM; read-out: C. elegans mitochondrial complex I activity
Recorded metric: activity at 0.025 µM (%)
Answer format: numeric, % implied, no suffix.

| Compound | Recorded metric | Reported value |
| --- | --- | --- |
| Clc1ccc(SCCCCn2cnc3ccccc32)cc1 [Compound 7925515] | activity at 0.025 µM | 86.2 |

Q: Requested read-out: activity at 0.025 µM. Entry: Cc1ccc(SCCCn2cnc3ccccc32)cc1 [Compound 7926035]
Result: 95.3

Q: // repeat for CCCOc1ccc(Cn2cnc3ccccc32)cc1 [Compound 7355741] and report
Result: 90.6

Q: // repeat for Cc1ccc(OCCn2cnc3ccccc32)cc1 [Compound 5671538] and report
Result: 98

Q: // repeat for Cc1cccc(OCCn2c(C)nc3ccccc32)c1 [Compound 6285199] and report
Result: 92.4

Q: // repeat for Clc1ccccc1OCCCCn1cnc2ccccc21 [Compound 7925804] and report
Result: 94.4

Q: // repeat for Brc1ccccc1OCCCCn1cnc2ccccc21 [Compound 7924576] and report
Result: 76

Q: // repeat for Cc1nc2ccccc2n1CCOc1ccccc1Cl [Compound 5561642] and report
Result: 83.1

Q: // repeat for Clc1ccc(Cn2cnc3ccccc32)c(Cl)c1 [Compound 6750659] and report
Result: 98.4

* * *

- Assayed system: M. musculus (heart) complex I (Mus musculus, UniProt P03888+Q91WD5+Q9DC70)
- Method notes: biochemical
- Type: biochemical
- Run conditions: M. musculus; dose 0.0005 µM; Mean of replicates; read-out: Complex I activity, dose-response data
Property: activity at 0.0005 µM; scope: individual molecules
Answer format: numeric, % implied, no suffix.

| Molecule | Reported value |
| --- | --- |
| COc1cc2c(cc1OC)C(C(C)c1ccc(CC(C)C)cc1)=NCC2 (stereo not shown) | 102 |
| COc1cc2c(cc1OC)C(/C=C/c1ccc(N(C)C)cc1)=NCC2 | 103 |
| CC(C)Cc1ccc(C(C)c2nc3ccccc3n2C)cc1 (stereo not shown) | 103 |

# next molecule below
Q: Requested read-out: activity at 0.0005 µM. Entry: "COc1cc2c(cc1OC)C(c1ccc(-c3ccc(Cl)c(Cl)c3)o1)=NCC2"
Result: 99.8

* * *

- Assayed system: B. taurus (heart) complex I (Bos taurus, UniProt P03887+P17694+P42026)
- Sequence (P03887 whole entry): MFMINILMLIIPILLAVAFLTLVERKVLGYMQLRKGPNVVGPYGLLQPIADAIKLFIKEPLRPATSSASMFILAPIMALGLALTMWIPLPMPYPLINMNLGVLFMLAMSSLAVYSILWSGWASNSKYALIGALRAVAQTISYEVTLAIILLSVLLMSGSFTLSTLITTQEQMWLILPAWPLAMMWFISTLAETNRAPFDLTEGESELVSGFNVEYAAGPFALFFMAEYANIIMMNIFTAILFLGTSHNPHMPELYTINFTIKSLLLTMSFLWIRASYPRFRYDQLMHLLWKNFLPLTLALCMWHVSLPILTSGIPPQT
- Sequence (P17694 34-463): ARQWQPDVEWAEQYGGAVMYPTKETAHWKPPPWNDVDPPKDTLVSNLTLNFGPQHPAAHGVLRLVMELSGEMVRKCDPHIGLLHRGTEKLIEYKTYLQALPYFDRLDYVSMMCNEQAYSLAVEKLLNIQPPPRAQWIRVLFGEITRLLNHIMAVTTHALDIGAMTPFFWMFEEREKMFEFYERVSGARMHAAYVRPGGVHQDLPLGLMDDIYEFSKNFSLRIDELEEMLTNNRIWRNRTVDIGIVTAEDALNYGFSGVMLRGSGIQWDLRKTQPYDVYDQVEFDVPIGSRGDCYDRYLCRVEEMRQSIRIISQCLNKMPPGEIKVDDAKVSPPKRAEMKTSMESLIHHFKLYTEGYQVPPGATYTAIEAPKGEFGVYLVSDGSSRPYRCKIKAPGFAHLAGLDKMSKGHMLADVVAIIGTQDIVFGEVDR
- Sequence (P42026 38-216): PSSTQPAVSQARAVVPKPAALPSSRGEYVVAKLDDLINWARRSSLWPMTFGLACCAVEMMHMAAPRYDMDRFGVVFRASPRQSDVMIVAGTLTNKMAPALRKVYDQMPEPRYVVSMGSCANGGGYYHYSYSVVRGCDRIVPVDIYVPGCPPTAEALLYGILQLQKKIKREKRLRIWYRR
- Method notes: biochemical
- Type: biochemical
- Run conditions: Dose 0.025 µM; read-out: B. taurus mitochondrial complex I activity
Recorded metric: activity at 0.025 µM (%)
Answer format: numeric, % implied, no suffix.

Use the examples below as a reference point.
| Molecule | activity at 0.025 µM / % |
| --- | --- |
| Cc1nc2ccccc2n1CCOc1ccccc1Cl [Compound 5561642] | 83.6 |
| FC(F)(F)c1cccc(OCCCCn2cnc3ccccc32)c1 [Compound 7925004] | 87.1 |
| Clc1ccc(SCCCCn2cnc3ccccc32)cc1 [Compound 7925515] | 90.6 |
| Clc1ccccc1OCCCCn1cnc2ccccc21 [Compound 7925804] | 116 |

Q: Requested read-out: activity at 0.025 µM. Entry: Cc1nc2ccccc2n1Cc1ccc(Cl)c(Cl)c1 [Compound 5655567]
Result: 82.4

Q: // repeat for CCc1cc(OCCn2cnc3ccccc32)ccc1Cl [Compound 7925288] and report
Result: 82.7

Q: // repeat for Brc1ccccc1OCCCCn1cnc2ccccc21 [Compound 7924576] and report
Result: 102

Q: // repeat for Cc1ccc(OCCn2cnc3ccccc32)c(C)c1 [Compound 7706808] and report
Result: 90.5

Q: // repeat for Cc1ccc(OCCn2cnc3ccccc32)cc1 [Compound 5671538] and report
Result: 97.5

Q: // repeat for Nc1nc2ccccc2n1CCOc1ccc(Br)cc1 [Compound 5842535] and report
Result: 87.8

Q: // repeat for Nc1nc2ccccc2n1Cc1ccc(Cl)cc1 [Compound 5652765] and report
Result: 83.3

Q: // repeat for Cc1ccc(SCCCCn2cnc3ccccc32)cc1 [Compound 7925333] and report
Result: 94.2

Q: // repeat for Cc1nc2ccccc2n1CCOc1ccccc1 [Compound 5550112] and report
Result: 99.2

Q: // repeat for Clc1ccc(Cn2cnc3ccccc32)c(Cl)c1 [Compound 6750659] and report
Result: 92.7

Q: // repeat for Clc1ccc(OCCn2cnc3ccccc32)c(Cl)c1 [Compound 7221649] and report
Result: 92

Q: // repeat for Cc1ccc(C(C)C)c(OCC(O)Cn2cnc3ccccc32)c1 (centres unmarked) [Compound 6093301] and report
Result: 96.1

Q: // repeat for Cc1ccc(SCCCn2cnc3ccccc32)cc1 [Compound 7926035] and report
Result: 100

Q: // repeat for Clc1ccc(Cn2cnc3ccccc32)cc1Cl [Compound 5571325] and report
Result: 96.9

Q: // repeat for Cc1ccccc1OCCCCn1cnc2ccccc21 [Compound 7732524] and report
Result: 85.2

Q: // repeat for Cc1ccccc1OCCCn1c(C)nc2ccccc21 [Compound 7916923] and report
Result: 102

Q: // repeat for CCCOc1ccc(Cn2cnc3ccccc32)cc1 [Compound 7355741] and report
Result: 109

Q: // repeat for CC(C)Oc1cccc(OCCn2cnc3ccccc32)c1 [Compound 7926496] and report
Result: 91.4

Q: // repeat for Cc1cccc(OCCn2c(C)nc3ccccc32)c1 [Compound 6285199] and report
Result: 95.3
